Test system: U2OS
EXPERIMENTAL_PROTOCOL: Multiplex assay against U2OS
Assay type: toxicity, cell-based
CONDITION_CONTEXT: human, 24 h, 1 µM, compound concentration 1 uM, replicate 2
Binary label based on Population Hoechst High Intensity Objects (%) with cut-off 6%: below gives t, not below gives f.

Incoming: Strictly below 6%: is that where Population Hoechst High Intensity Objects (%) of CCc1cc2c(cc1CC)CC(NC[C@H](O)c1ccc(O)c3[nH]c(=O)ccc13)C2 sits?
Outgoing: t

Incoming: Strictly below 6%: is that where Population Hoechst High Intensity Objects (%) of Nc1nc2c(c(N3CCNCC3)n1)CCC1=C2[C@@H]2CCCC[C@@H]2O1 sits?
Outgoing: f

Incoming: Strictly below 6%: is that where Population Hoechst High Intensity Objects (%) of COc1cc2c(Nc3ccc(NC(=O)c4ccccc4)cc3)ncnc2cc1OCCCN1CCOCC1 sits?
Outgoing: f

Incoming: Strictly below 6%: is that where Population Hoechst High Intensity Objects (%) of c1ccc2oc(-c3csc(C4CCN(Cc5nc6ncccc6[nH]5)CC4)n3)cc2c1 sits?
Outgoing: t

Incoming: Strictly below 6%: is that where Population Hoechst High Intensity Objects (%) of CC(C)Oc1ccc(C(=O)N[C@H](CNC(=O)CN(C)C)Cc2ccc(-c3cn4cccc([C@H](C)O)c4n3)cc2)cc1Cl [GSK-923295A] sits?
Outgoing: f

Just for reference, ChEMBL document CHEMBL4689842 is where these values come from.
